ASSAY SYSTEM: T1, monomeric human PRLR (hPRLR.mmh; SEQ ID NO:401) (Homo sapiens, UniProt P16471)
T1 construct: soluble monomeric (hPRLR.mmh); mmh (myc-myc-hexahistidine) (C)
T1 sequence (P16471 with tags, fused parts or gaps): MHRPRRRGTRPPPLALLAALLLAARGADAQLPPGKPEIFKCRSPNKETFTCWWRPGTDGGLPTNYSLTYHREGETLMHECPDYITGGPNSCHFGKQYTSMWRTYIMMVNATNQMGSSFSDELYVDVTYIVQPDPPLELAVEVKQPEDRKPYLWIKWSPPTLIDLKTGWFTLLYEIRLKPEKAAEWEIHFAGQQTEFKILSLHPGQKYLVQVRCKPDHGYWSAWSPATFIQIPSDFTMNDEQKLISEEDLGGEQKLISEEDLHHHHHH
EXPERIMENT: Surface plasmon resonance (Biacore T200), antibody-capture format
Format: binding
EXPERIMENTAL CONTEXT: 25° C., analyte hPRLR.mmh
REPORTED PROPERTY: ka (M/s)
Give bare numbers, in M/s.

QUERY: Need ka of H1H6953N: anti-PRLR antibody, human IgG1 Fc form of H1M6953N of Table 1; HCVR/LCVR SEQ ID NOs 274/282 (antibody, V domains shown) VH: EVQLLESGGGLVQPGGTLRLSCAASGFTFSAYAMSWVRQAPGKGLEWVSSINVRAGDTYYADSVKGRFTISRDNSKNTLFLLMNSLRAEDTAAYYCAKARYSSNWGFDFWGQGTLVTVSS VL: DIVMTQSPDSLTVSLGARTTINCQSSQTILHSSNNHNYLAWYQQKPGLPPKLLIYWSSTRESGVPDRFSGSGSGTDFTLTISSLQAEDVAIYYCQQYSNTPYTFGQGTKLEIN , thanks.
RESULT: 792000

All values here come from patent US10925971B2.
